# reported Activity; entries follow
- Tested on: Candida albicans
- test summary: Antimicrobial activity against Candida albicans assessed as 99.9 % growth inhibition after 18 hrs by zone-of-inhibition assay
- Type: functional
measured quantity: Activity

{"columns": ["smiles data", "assay system", "result"],
 "data": [
  ["COc1c(O)cc2ccc(=O)oc2c1OC", "Candida albicans", ">1000 µg/mL"],
  ["CC1=CC(=O)c2c(O)cccc2C1=O", "Candida albicans", ">1000 µg/mL"],
  ["COc1cc2ccc(=O)oc2cc1O", "Candida albicans", ">1000 µg/mL"],
  ["COC(=O)c1c(O)cc(C)cc1O", "Candida albicans", ">1000 µg/mL"],
  ["CC1=CC(=O)c2c(O)ccc(-c3ccc(O)c4c3C(=O)C(C)=CC4=O)c2C1=O", "Candida albicans", "40 µg/mL"],
  ["CC1=CC(=O)c2c(ccc(C3=C(C)C(=O)c4cccc(O)c4C3=O)c2O)C1=O", "Candida albicans", ">1000 µg/mL"]
]}
